# test.summary: Stability in urine under different storage conditions
# Assay type: physicochemical, human
# run.parameters: Long term stability 3 months at − 80 °C, 2.50 ng/mL (LQC)
observable: Measured concentration (ng/mL)
Output spec: scalar in ng/mL, unitless text.

Task item: Please report the measured Measured concentration for C=C1CC[C@@H]2[C@](C)(CO)[C@H](O)CC[C@@]2(C)[C@@H]1C/C=C1/C(=O)OC[C@H]1O [AP1, andrographolide]
Reply: 2.38

Task item: Please report the measured Measured concentration for C=C1CC[C@@H]2[C@](C)(CO[C@@H]3O[C@H](CO)[C@@H](O)[C@H](O)[C@H]3O)CCC[C@@]2(C)[C@@H]1CCC1=CCOC1=O [AP4, neoandrographolide]
Reply: 2.34

Task item: Please report the measured Measured concentration for C=C1CC[C@@H]2[C@](C)(CO)[C@H](O)CC[C@@]2(C)[C@@H]1/C=C/C1=CCOC1=O [AP3, 14-deoxy-11, 12-didehydroandrographolide]
Reply: 2.36

Task item: Please report the measured Measured concentration for C=C1CC[C@@H]2[C@](C)(CO)[C@H](O)CC[C@@]2(C)[C@@H]1CCC1=CCOC1=O [AP6, 14-deoxyandrographolide]
Reply: 2.35

---

# run.parameters: plasma; Long term stability 3 months at − 80 °C; 900.00 ng/mL (HQC)
Hi there, I'd appreciate the recorded %Accuracy for every entry that follows.
Output spec: scalar in %, unitless text.

Task item: Please report the measured %Accuracy for C=C1CC[C@@H]2[C@](C)(CO)[C@H](O)CC[C@@]2(C)[C@@H]1CCC1=CCOC1=O [AP6, 14-deoxyandrographolide]
Reply: 98.92

Task item: Please report the measured %Accuracy for C=C1CC[C@@H]2[C@](C)(CO)[C@H](O)CC[C@@]2(C)[C@@H]1/C=C/C1=CCOC1=O [AP3, 14-deoxy-11, 12-didehydroandrographolide]
Reply: 98.11

Task item: Please report the measured %Accuracy for C=C1CC[C@@H]2[C@](C)(CO)[C@H](O)CC[C@@]2(C)[C@@H]1C/C=C1/C(=O)OC[C@H]1O [AP1, andrographolide]
Reply: 99.25

Task item: Please report the measured %Accuracy for C=C1CC[C@@H]2[C@](C)(CO[C@@H]3O[C@H](CO)[C@@H](O)[C@H](O)[C@H]3O)CCC[C@@]2(C)[C@@H]1CCC1=CCOC1=O [AP4, neoandrographolide]
Reply: 98.12

---

# run.parameters: plasma; Post preparative stability 24 h at autosampler; 500.00 ng/mL (MQC)
Hi there, I'd appreciate the recorded %Accuracy for every entry that follows.
Output spec: scalar in %, unitless text.

Task item: Please report the measured %Accuracy for C=C1CC[C@@H]2[C@](C)(CO)[C@H](O)CC[C@@]2(C)[C@@H]1/C=C/C1=CCOC1=O [AP3, 14-deoxy-11, 12-didehydroandrographolide]
Reply: 94.34

Task item: Please report the measured %Accuracy for C=C1CC[C@@H]2[C@](C)(CO)[C@H](O)CC[C@@]2(C)[C@@H]1C/C=C1/C(=O)OC[C@H]1O [AP1, andrographolide]
Reply: 92.60

Task item: Please report the measured %Accuracy for C=C1CC[C@@H]2[C@](C)(CO)[C@H](O)CC[C@@]2(C)[C@@H]1CCC1=CCOC1=O [AP6, 14-deoxyandrographolide]
Reply: 96.39

Task item: Please report the measured %Accuracy for C=C1CC[C@@H]2[C@](C)(CO[C@@H]3O[C@H](CO)[C@@H](O)[C@H](O)[C@H]3O)CCC[C@@]2(C)[C@@H]1CCC1=CCOC1=O [AP4, neoandrographolide]
Reply: 97.12

---

# run.parameters: plasma; Post preparative stability 24 h at autosampler; 900.00 ng/mL (HQC)
observable: Measured concentration (ng/mL)
Output spec: scalar in ng/mL, unitless text.

Task item: Please report the measured Measured concentration for C=C1CC[C@@H]2[C@](C)(CO[C@@H]3O[C@H](CO)[C@@H](O)[C@H](O)[C@H]3O)CCC[C@@]2(C)[C@@H]1CCC1=CCOC1=O [AP4, neoandrographolide]
Reply: 885.84

Task item: Please report the measured Measured concentration for C=C1CC[C@@H]2[C@](C)(CO)[C@H](O)CC[C@@]2(C)[C@@H]1C/C=C1/C(=O)OC[C@H]1O [AP1, andrographolide]
Reply: 895.66

Task item: Please report the measured Measured concentration for C=C1CC[C@@H]2[C@](C)(CO)[C@H](O)CC[C@@]2(C)[C@@H]1CCC1=CCOC1=O [AP6, 14-deoxyandrographolide]
Reply: 911.38

Task item: Please report the measured Measured concentration for C=C1CC[C@@H]2[C@](C)(CO)[C@H](O)CC[C@@]2(C)[C@@H]1/C=C/C1=CCOC1=O [AP3, 14-deoxy-11, 12-didehydroandrographolide]
Reply: 901.09

---

# run.parameters: plasma; Freeze–thaw stability 5 cycles; 900.00 ng/mL (HQC)
Hi there, I'd appreciate the recorded %Accuracy for every entry that follows.
Don't forget the unit after the value.

Task item: Please report the measured %Accuracy for C=C1CC[C@@H]2[C@](C)(CO[C@@H]3O[C@H](CO)[C@@H](O)[C@H](O)[C@H]3O)CCC[C@@]2(C)[C@@H]1CCC1=CCOC1=O [AP4, neoandrographolide]
Reply: 100.73%

Task item: Please report the measured %Accuracy for C=C1CC[C@@H]2[C@](C)(CO)[C@H](O)CC[C@@]2(C)[C@@H]1CCC1=CCOC1=O [AP6, 14-deoxyandrographolide]
Reply: 98.93%

Task item: Please report the measured %Accuracy for C=C1CC[C@@H]2[C@](C)(CO)[C@H](O)CC[C@@]2(C)[C@@H]1C/C=C1/C(=O)OC[C@H]1O [AP1, andrographolide]
Reply: 95.28%

Task item: Please report the measured %Accuracy for C=C1CC[C@@H]2[C@](C)(CO)[C@H](O)CC[C@@]2(C)[C@@H]1/C=C/C1=CCOC1=O [AP3, 14-deoxy-11, 12-didehydroandrographolide]
Reply: 98.75%

---

# test.summary: Stability in urine under different storage conditions
# Assay type: physicochemical, human
# run.parameters: Freeze–thaw stability 5 cycles, 2.50 ng/mL (LQC)
Hi there, I'd appreciate the recorded %Accuracy for every entry that follows.
Output spec: scalar in %, unitless text.

Task item: Please report the measured %Accuracy for C=C1CC[C@@H]2[C@](C)(CO)[C@H](O)CC[C@@]2(C)[C@@H]1/C=C/C1=CCOC1=O [AP3, 14-deoxy-11, 12-didehydroandrographolide]
Reply: 93.92

Task item: Please report the measured %Accuracy for C=C1CC[C@@H]2[C@](C)(CO)[C@H](O)CC[C@@]2(C)[C@@H]1C/C=C1/C(=O)OC[C@H]1O [AP1, andrographolide]
Reply: 94.39

Task item: Please report the measured %Accuracy for C=C1CC[C@@H]2[C@](C)(CO)[C@H](O)CC[C@@]2(C)[C@@H]1CCC1=CCOC1=O [AP6, 14-deoxyandrographolide]
Reply: 95.48

Task item: Please report the measured %Accuracy for C=C1CC[C@@H]2[C@](C)(CO[C@@H]3O[C@H](CO)[C@@H](O)[C@H](O)[C@H]3O)CCC[C@@]2(C)[C@@H]1CCC1=CCOC1=O [AP4, neoandrographolide]
Reply: 93.80

---

# test.summary: Stability in urine under different storage conditions
# Assay type: physicochemical, human
# run.parameters: Long term stability 3 months at − 80 °C, 900.00 ng/mL (HQC)
Hi there, I'd appreciate the recorded %Accuracy for every entry that follows.
Output spec: scalar in %, unitless text.

Task item: Please report the measured %Accuracy for C=C1CC[C@@H]2[C@](C)(CO)[C@H](O)CC[C@@]2(C)[C@@H]1/C=C/C1=CCOC1=O [AP3, 14-deoxy-11, 12-didehydroandrographolide]
Reply: 98.18

Task item: Please report the measured %Accuracy for C=C1CC[C@@H]2[C@](C)(CO)[C@H](O)CC[C@@]2(C)[C@@H]1C/C=C1/C(=O)OC[C@H]1O [AP1, andrographolide]
Reply: 98.08

Task item: Please report the measured %Accuracy for C=C1CC[C@@H]2[C@](C)(CO[C@@H]3O[C@H](CO)[C@@H](O)[C@H](O)[C@H]3O)CCC[C@@]2(C)[C@@H]1CCC1=CCOC1=O [AP4, neoandrographolide]
Reply: 94.77

Task item: Please report the measured %Accuracy for C=C1CC[C@@H]2[C@](C)(CO)[C@H](O)CC[C@@]2(C)[C@@H]1CCC1=CCOC1=O [AP6, 14-deoxyandrographolide]
Reply: 99.27

---

# run.parameters: plasma; Long term stability 3 months at − 80 °C; 2.50 ng/mL (LQC)
Hi there, I'd appreciate the recorded %Accuracy for every entry that follows.
Don't forget the unit after the value.

Task item: Please report the measured %Accuracy for C=C1CC[C@@H]2[C@](C)(CO)[C@H](O)CC[C@@]2(C)[C@@H]1/C=C/C1=CCOC1=O [AP3, 14-deoxy-11, 12-didehydroandrographolide]
Reply: 87.13%

Task item: Please report the measured %Accuracy for C=C1CC[C@@H]2[C@](C)(CO)[C@H](O)CC[C@@]2(C)[C@@H]1C/C=C1/C(=O)OC[C@H]1O [AP1, andrographolide]
Reply: 94.28%

Task item: Please report the measured %Accuracy for C=C1CC[C@@H]2[C@](C)(CO[C@@H]3O[C@H](CO)[C@@H](O)[C@H](O)[C@H]3O)CCC[C@@]2(C)[C@@H]1CCC1=CCOC1=O [AP4, neoandrographolide]
Reply: 93.19%

Task item: Please report the measured %Accuracy for C=C1CC[C@@H]2[C@](C)(CO)[C@H](O)CC[C@@]2(C)[C@@H]1CCC1=CCOC1=O [AP6, 14-deoxyandrographolide]
Reply: 88.89%

Data credit: paper PMC9924185
